- Target Entity: Human CB2R (Cannabanoid receptor 2) (Homo sapiens (Human), UniProt P34972)
- Sequence (P34972 whole entry): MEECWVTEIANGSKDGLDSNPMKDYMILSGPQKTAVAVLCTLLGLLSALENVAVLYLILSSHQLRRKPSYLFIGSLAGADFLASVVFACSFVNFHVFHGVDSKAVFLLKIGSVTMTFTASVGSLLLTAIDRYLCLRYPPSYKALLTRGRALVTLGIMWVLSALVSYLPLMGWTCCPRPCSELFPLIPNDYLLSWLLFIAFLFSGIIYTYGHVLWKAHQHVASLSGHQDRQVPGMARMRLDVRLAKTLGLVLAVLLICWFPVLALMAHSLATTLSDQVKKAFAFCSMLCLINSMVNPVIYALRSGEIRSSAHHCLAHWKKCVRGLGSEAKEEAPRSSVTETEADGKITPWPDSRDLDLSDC
- Protocol Text: CB-2 in vitro cAMP assay (HTRF)
- Assay type: cell-based
- Details: mean where tested more than once
Measure: EC50 (µM)

Query: Which value of EC50 has been reported for NC(=O)c1ccc(CN2CCC(Nc3ncnc4ccc(C(c5ccc(Cl)cc5)c5ccc(Cl)cc5)cc34)CC2)cc1 in the records?
Response: 3.57

Query: Field request: EC50 | item: O=C(NCCO)c1cccc(N2CCC(Nc3ncnc4ccc(C(c5ccc(Cl)cc5)c5ccc(Cl)cc5)cc34)CC2)c1
Response: 3.5

----------
- Target Entity: Human CB1R (Cannabanoid receptor 1) (Homo sapiens (Human))
- Sequence (P21554 whole entry): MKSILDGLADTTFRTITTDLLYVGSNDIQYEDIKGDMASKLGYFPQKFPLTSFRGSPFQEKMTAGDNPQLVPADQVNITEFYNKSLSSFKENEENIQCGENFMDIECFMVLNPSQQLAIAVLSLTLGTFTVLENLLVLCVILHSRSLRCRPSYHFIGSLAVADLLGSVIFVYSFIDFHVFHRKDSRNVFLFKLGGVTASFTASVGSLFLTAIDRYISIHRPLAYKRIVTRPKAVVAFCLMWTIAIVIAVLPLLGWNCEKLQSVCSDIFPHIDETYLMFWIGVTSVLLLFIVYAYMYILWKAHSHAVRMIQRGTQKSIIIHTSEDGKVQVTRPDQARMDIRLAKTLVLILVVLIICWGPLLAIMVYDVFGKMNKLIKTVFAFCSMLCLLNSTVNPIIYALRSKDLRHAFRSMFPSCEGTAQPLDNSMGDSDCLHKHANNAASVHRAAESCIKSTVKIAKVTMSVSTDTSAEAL
- Protocol Text: CB-1 in vitro cAMP assay (HTRF)
- Details: mean where tested more than once
pEC50: −log10 of the molar value.
Measure: pEC50

Query: Which value of pEC50 has been reported for O=S(=O)(N1CCCC1)N1CCC(Nc2ncnc3ccc(C(c4ccc(Cl)cc4)c4ccc(Cl)cc4)cc23)CC1 in the records?
Response: 8.40

Query: Entry O=C(O)c1ccc(CN2CCC(Nc3ncnc4ccc(C(c5ccc(Cl)cc5)c5ccc(Cl)cc5)cc34)CC2)cc1 : reported pEC50 = ?
Response: 6.24

Query: pEC50; subject: COCCOc1nc(NCc2ccc(C(F)(F)F)cc2)c2cc(C(c3ccc(Cl)cc3)c3ccc(Cl)cc3)ccc2n1
Response: 7.52

Query: May I ask what pEC50 has been recorded for O=S(=O)(c1ccc(Nc2ncnc3ccc(C(c4ccc(Cl)cc4)c4nccs4)cc23)cc1)C(F)(F)F (centres unmarked) ?
Response: 6.24

Query: Sample OCCCCOc1nc(NCc2cccc(C(F)(F)F)c2)c2cc(C(c3ccc(Cl)cc3)c3ccc(Cl)cc3)ccc2n1 — what was its pEC50?
Response: 7.38

[A] NC(=O)c1ccc(N2CCC(Nc3ncnc4ccc(C(c5ccc(Cl)cc5)c5ccc(Cl)cc5)cc34)CC2)cc1
[B] O=C(O)c1cccc(CNc2ncnc3ccc(C(c4ccc(Cl)cc4)c4ccc(Cl)cc4)cc23)c1
[C] COC(=O)c1ccc(CN2CCC(Nc3ncnc4ccc(C(c5ccc(Cl)cc5)c5ccc(Cl)cc5)cc34)CC2)cc1
[D] O=S(=O)(NC1CCN(c2ncnc3ccc(C(c4ccc(Cl)cc4)c4ccc(Cl)cc4)cc23)C1)C(F)(F)F (centres unmarked)
[E] O=C(O)c1ccc(CN2CCC(Nc3ncnc4ccc(C(c5ccc(Cl)cc5)c5ccc(Cl)cc5)cc34)C2)cc1 (centres unmarked)
Query: Sort these compounds on pEC50 so the largest reading comes first. A ranking is expressed here by listing the labels in the requested order.
Response: A, C, D, E, B
(A: 7.47, C: 7.23, D: 6.72, E: 5.95, B: 5.35)

[I] NC(=O)c1ccc(CN2CCC(Nc3ncnc4ccc(C(c5ccc(Cl)cc5)c5ccc(Cl)cc5)cc34)CC2)cc1
[II] O=S1(=O)CCN(CCNc2ncnc3ccc(C(c4ccc(Cl)cc4)c4ccc(Cl)cc4)cc23)CC1
Query: Which numeric pEC50 is bigger, that of I or that of II ? Please identify the chosen entry by its label.
Response: II
